Reported CC50 values for the following molecules.
experimental details: Cytotoxicity in Vero cell cultures (MTS)
Format: cell-based, African green monkey
setup conditions: African green monkey, Vero cells (kidney epithelial cells), uninfected, MTS assay, read-out: Cytotoxixity CC50

{"columns": ["molecule", "CC50"],
 "data": [
  ["COc1c(C)c2c(c(O)c1C/C=C(\\C)CCC(=O)O)C(=O)OC2 [Mycophenolic acid, reference compound]", "> 100 µM"]
]}

INPUT: So what does the record say about CC50 for Cc1cn(C2CC(O)C(CO)C3CC32)c(=O)[nH]c1=O (stereo not drawn) ?
OUTPUT: > 50 µg/mL

INPUT: So what does the record say about CC50 for NC(=O)c1nnn(C2CC(O)C(CO)C3CC32)c1N (stereo not drawn) ?
OUTPUT: > 50 µg/mL
